assay: Cytotoxicity against human THP1 cells assessed as cell viability at 1 uM after 24 hrs by CellTiter-Glo luminescent cell viability assay relative to control; format: cell-based; conditions: THP-1 cells, read-out: Activity
attribute measured: viability at 24 h, 1 µM (%)
Quick note: give the figure in %, leave out the unit.

Query string: Fill in: viability at 24 h, 1 µM of C=C(C)[C@@H]1CCC(C)=C[C@H]1c1c(O)cc(CCCCC)cc1O is ___
Result string: 97.6

====

experiment: Cytotoxicity against human THP1 cells assessed as cell viability at 0.1 to 100 uM after 24 hrs in presence of LPS by CellTiter-Glo luminescent cell viability assay relative to control; assay type: cell-based; details: THP-1 cells, read-out: Activity
attribute measured: viability at 24 h, up to 100 µM

Query string: Fill in: viability at 24 h, up to 100 µM of C=C(C)[C@@H]1CCC(C)=C[C@H]1c1c(O)cc(CCCCC)cc1O [CANNABIDIOL] is ___
Result string: > 97%
